So I've got a bunch of compounds here, and I need their kinase still bound, per cent of control values.
- target_system: UniProt:P50750
- Sequence (P50750 whole entry, looked up): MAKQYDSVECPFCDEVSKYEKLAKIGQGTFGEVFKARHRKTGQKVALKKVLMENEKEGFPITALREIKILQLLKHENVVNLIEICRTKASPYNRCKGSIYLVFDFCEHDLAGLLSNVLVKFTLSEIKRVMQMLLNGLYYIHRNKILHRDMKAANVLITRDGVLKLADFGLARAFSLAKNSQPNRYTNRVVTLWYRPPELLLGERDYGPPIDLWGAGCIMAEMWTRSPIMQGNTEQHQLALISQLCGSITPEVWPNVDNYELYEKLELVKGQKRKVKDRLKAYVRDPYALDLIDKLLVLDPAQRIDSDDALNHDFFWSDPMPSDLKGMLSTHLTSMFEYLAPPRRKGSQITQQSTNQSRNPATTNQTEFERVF
- method_summary: KINOMEscan competition binding
- conditions_used: compound 10.0 µM
Numbers only, in %.

Consider the worked cases shown below.
- CNC(=O)c1cc(Oc2ccc(NC(=O)Nc3ccc(Cl)c(C(F)(F)F)c3)cc2)ccn1: 81
- O=c1cc(N2CCOCC2)oc2c(-c3cccc4c3sc3ccccc34)cccc12: 98
- Cc1n[nH]c2ccc(-c3cncc(OC[C@@H](N)Cc4c[nH]c5ccccc45)c3)cc12: 1.9
- NC(=O)Nc1cc(-c2cccc(F)c2)sc1C(=O)N[C@@H]1CCCNC1: 88
- O=C1NC(=O)/C(=C/c2ccc3nccc(-c4ccncc4)c3c2)S1: 16
- C=CC(=O)Nc1cc(-n2c(=O)ccc3cnc4ccc(-c5cn[nH]c5)cc4c32)ccc1C: 100
- COc1cc2ncn(-c3cc(OCc4ccccc4C(F)(F)F)c(C(N)=O)s3)c2cc1OC: 100

Now examine the next entry.
# get_value(readout='kinase still bound, per cent of control', item= C=CC(=O)Nc1ccc(CN(C(=O)Nc2c(Cl)c(OC)cc(OC)c2Cl)c2cc(Nc3ccc(N4CCN(C)CC4)cc3)ncn2)cc1 )
100

---

- target_system: MAP3K5 (human)
- method_summary: KINOMEscan competition binding
- conditions_used: compound 10.0 µM
So I've got a bunch of compounds here, and I need their kinase still bound, per cent of control values.
Give bare numbers, in %.

Consider the worked cases shown below.
• CS(=O)(=O)N1CCN(Cc2cc3nc(-c4cccc5[nH]ncc45)nc(N4CCOCC4)c3s2)CC1 = 100
• CCN(CC)CCCCNc1ncc2cc(-c3cc(OC)cc(OC)c3)c(NC(=O)NC(C)(C)C)nc2n1 = 100

Now examine the next entry.
# get_value(readout='kinase still bound, per cent of control', item= C[C@@H](Oc1cc(-c2cnn(C3CCNCC3)c2)cnc1N)c1c(Cl)ccc(F)c1Cl )
100

---

- target_system: CDKL5 (human)
- method_summary: KINOMEscan competition binding
- conditions_used: compound 10.0 µM
So I've got a bunch of compounds here, and I need their kinase still bound, per cent of control values.
One number for each entry, in %.

Consider the worked cases shown below.
• CCN1CCN(C(=O)Cc2ccc(Nc3ncc(F)c(Nc4ccc(C(=O)Nc5ccccc5Cl)cc4)n3)cc2)CC1 = 100
• COc1cc2ncnc(-n3nc(-c4ccccn4)nc3N)c2cc1OC = 0.3
• C=CC(=O)Nc1cc(-n2c(=O)ccc3cnc4ccc(-c5cn[nH]c5)cc4c32)ccc1C = 3.3
• CCN(CC)CCCCNc1ncc2c(n1)N(C)C(=O)N(c1c(Cl)c(OC)cc(OC)c1Cl)C2 = 100
• O=c1cc(N2CCOCC2)oc2c(-c3cccc4c3sc3ccccc34)cccc12 = 100

Look up kinase still bound, per cent of control for the entries below, preserving their order.
1. COc1cc2ncn(-c3cc(OCc4ccccc4C(F)(F)F)c(C(N)=O)s3)c2cc1OC
2. COc1ccc(N(C(=O)Oc2c(C)cccc2C)c2ccnc(Nc3ccc(N4CCN(C)CC4)cc3)n2)c(OC)c1

[73, 100]

Look up kinase still bound, per cent of control for the entries below, preserving their order.
1. CN(C)C/C=C/C(=O)Nc1ccc(C(=O)Nc2cccc(Nc3nccc(-c4cccnc4)n3)c2)cc1
2. COc1cc(C(=O)N2CCC(N3CCN(C)CC3)CC2)ccc1Nc1ncc2c(n1)N(C)c1ccccc1C(=O)N2C

[60, 100]

---

So I've got a bunch of molecules here, and I need their kinase still bound, per cent of control values.
- target_system: DCLK2 (human) (UniProt Q8N568)
- Sequence (Q8N568 whole entry, looked up): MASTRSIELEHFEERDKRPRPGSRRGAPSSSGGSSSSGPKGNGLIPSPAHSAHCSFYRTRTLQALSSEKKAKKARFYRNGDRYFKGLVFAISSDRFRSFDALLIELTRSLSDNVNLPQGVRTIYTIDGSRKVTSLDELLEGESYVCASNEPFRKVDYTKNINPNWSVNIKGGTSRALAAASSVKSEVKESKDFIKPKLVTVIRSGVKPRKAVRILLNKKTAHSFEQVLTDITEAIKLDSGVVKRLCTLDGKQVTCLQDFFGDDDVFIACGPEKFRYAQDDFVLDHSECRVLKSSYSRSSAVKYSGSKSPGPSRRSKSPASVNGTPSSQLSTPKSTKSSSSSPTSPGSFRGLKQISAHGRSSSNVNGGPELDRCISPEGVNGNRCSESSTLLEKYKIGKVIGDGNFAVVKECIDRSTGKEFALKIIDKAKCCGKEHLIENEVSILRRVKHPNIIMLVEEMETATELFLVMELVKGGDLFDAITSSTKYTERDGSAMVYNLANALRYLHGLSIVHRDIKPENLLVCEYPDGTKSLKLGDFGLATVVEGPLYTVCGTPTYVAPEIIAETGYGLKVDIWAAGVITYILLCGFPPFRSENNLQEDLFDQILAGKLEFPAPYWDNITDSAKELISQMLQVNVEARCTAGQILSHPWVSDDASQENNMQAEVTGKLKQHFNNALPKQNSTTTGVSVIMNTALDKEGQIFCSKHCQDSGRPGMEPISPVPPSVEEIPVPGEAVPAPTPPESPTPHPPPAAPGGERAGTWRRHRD
- method_summary: KINOMEscan competition binding
- conditions_used: compound 10.0 µM
Answers are plain numbers, in %.

Consider the worked cases shown below.
* NC(=O)Nc1cc(-c2cccc(F)c2)sc1C(=O)N[C@@H]1CCCNC1 | 2.4
* COc1cc2ncn(-c3cc(OCc4ccccc4C(F)(F)F)c(C(N)=O)s3)c2cc1OC | 99
* O=c1cc(N2CCOCC2)oc2c(-c3cccc4c3sc3ccccc34)cccc12 | 100

Look up kinase still bound, per cent of control for the entries below, preserving their order.
1. COc1cc(N2CCN(C)CC2)ccc1Nc1ncc2c(n1)N(C)c1ccccc1C(=O)N2C
2. O=C(Nc1cccc(Nc2ncc(Br)c(NCCc3cnc[nH]3)n2)c1)N1CCCC1
3. C[C@@H](Oc1cc(-c2cnn(C3CCNCC3)c2)cnc1N)c1c(Cl)ccc(F)c1Cl
4. CCN(CC)CCCCNc1ncc2cc(-c3cc(OC)cc(OC)c3)c(NC(=O)NC(C)(C)C)nc2n1
5. CNC(=O)c1ccc(Nc2cc(Nc3ccccc3S(=O)(=O)C(C)C)c3cc[nH]c3n2)nc1
6. C=CC(=O)Nc1ccc(CN(C(=O)Nc2c(Cl)c(OC)cc(OC)c2Cl)c2cc(Nc3ccc(N4CCN(C)CC4)cc3)ncn2)cc1
7. COc1cc(C(=O)N2CCC(N3CCN(C)CC3)CC2)ccc1Nc1ncc2c(n1)N(C)c1ccccc1C(=O)N2C

1: 0.45; 2: 70; 3: 1.2; 4: 100; 5: 100; 6: 100; 7: 0.45

---

- target_system: STK24 (human) (UniProt Q9Y6E0)
- Sequence (Q9Y6E0 whole entry, looked up): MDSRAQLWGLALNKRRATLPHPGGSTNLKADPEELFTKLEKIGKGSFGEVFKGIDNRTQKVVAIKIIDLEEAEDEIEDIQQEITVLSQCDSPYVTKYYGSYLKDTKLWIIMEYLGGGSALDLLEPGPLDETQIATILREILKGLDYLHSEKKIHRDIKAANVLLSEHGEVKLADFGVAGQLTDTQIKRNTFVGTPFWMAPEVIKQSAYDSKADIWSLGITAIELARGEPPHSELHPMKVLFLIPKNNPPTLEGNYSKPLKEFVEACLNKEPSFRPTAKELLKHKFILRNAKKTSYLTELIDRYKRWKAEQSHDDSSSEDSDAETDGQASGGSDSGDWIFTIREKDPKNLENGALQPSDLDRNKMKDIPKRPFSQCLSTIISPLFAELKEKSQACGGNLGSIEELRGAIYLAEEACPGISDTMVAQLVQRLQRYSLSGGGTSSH
- method_summary: KINOMEscan competition binding
- conditions_used: compound 10.0 µM
Threshold check on kinase still bound, per cent of control: strictly below 90% is yes; on or above 90% is no.

Please review the entries below; each comes with its answer.
- CN(C)C/C=C/C(=O)Nc1ccc(C(=O)Nc2cccc(Nc3nccc(-c4cccnc4)n3)c2)cc1: no
- CNC(=O)c1cc(Oc2ccc(NC(=O)Nc3ccc(Cl)c(C(F)(F)F)c3)cc2)ccn1: no
- COc1cc2ncnc(-n3nc(-c4ccccn4)nc3N)c2cc1OC: yes
- Cc1n[nH]c2ccc(-c3cncc(OC[C@@H](N)Cc4c[nH]c5ccccc45)c3)cc12: no
- O=c1cc(N2CCOCC2)oc2c(-c3cccc4c3sc3ccccc34)cccc12: yes

Would you kindly verify if kinase still bound, per cent of control of C[C@@H](Oc1cc(-c2cnn(C3CCNCC3)c2)cnc1N)c1c(Cl)ccc(F)c1Cl is strictly less than 90%?
yes

---

- target_system: NEK4 (human) (UniProt P51957)
- Sequence (P51957 whole entry, looked up): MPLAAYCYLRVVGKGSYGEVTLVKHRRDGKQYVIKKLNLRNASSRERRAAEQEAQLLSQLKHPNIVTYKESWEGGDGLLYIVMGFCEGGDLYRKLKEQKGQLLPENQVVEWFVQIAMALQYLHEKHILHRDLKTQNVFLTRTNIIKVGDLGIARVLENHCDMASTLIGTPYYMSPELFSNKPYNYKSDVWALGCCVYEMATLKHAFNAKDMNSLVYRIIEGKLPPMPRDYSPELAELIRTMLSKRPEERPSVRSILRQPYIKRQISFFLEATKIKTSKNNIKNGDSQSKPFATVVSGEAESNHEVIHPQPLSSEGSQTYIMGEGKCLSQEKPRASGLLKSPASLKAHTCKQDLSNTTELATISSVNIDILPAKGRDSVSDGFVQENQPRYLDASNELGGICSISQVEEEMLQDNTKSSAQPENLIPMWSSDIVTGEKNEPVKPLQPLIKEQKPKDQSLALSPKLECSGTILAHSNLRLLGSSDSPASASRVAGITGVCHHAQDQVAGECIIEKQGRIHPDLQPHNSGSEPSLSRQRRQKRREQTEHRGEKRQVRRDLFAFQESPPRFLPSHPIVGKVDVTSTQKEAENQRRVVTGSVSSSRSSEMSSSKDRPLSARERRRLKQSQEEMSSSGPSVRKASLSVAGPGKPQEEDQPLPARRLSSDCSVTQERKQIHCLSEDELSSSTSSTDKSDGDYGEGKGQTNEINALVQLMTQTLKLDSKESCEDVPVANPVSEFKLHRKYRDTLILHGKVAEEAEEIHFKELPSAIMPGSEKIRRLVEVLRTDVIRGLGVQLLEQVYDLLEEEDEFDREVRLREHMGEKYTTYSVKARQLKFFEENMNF
- method_summary: KINOMEscan competition binding
- conditions_used: compound 10.0 µM
quantity_kind: kinase still bound, per cent of control (%)
Give bare numbers, in %.

Consider the worked cases shown below.
• O=C1NC(=O)/C(=C/c2ccc3nccc(-c4ccncc4)c3c2)S1 = 96
• COCC(=O)NC/C=C/c1ccc2ncnc(Nc3ccc(Oc4ccc(C)nc4)c(C)c3)c2c1 = 100
• C[C@@H](Oc1cc(-c2cnn(C3CCNCC3)c2)cnc1N)c1c(Cl)ccc(F)c1Cl = 25
• N#CCNC(=O)c1ccc(-c2ccnc(Nc3ccc(N4CCOCC4)cc3)n2)cc1 = 100
• NC(=O)Nc1cc(-c2cccc(F)c2)sc1C(=O)N[C@@H]1CCCNC1 = 22
• COc1ccc(N(C(=O)Oc2c(C)cccc2C)c2ccnc(Nc3ccc(N4CCN(C)CC4)cc3)n2)c(OC)c1 = 74
• COc1cc2ncn(-c3cc(OCc4ccccc4C(F)(F)F)c(C(N)=O)s3)c2cc1OC = 52
• CN(C)C/C=C/C(=O)Nc1ccc(C(=O)Nc2cccc(Nc3nccc(-c4cccnc4)n3)c2)cc1 = 100

Now examine the next entry.
# get_value(readout='kinase still bound, per cent of control', item= C=CC(=O)Nc1cc(-n2c(=O)ccc3cnc4ccc(-c5cn[nH]c5)cc4c32)ccc1C )
83

---

- target_system: PRKG2 (human) (UniProt Q13237)
- Sequence (Q13237 whole entry, looked up): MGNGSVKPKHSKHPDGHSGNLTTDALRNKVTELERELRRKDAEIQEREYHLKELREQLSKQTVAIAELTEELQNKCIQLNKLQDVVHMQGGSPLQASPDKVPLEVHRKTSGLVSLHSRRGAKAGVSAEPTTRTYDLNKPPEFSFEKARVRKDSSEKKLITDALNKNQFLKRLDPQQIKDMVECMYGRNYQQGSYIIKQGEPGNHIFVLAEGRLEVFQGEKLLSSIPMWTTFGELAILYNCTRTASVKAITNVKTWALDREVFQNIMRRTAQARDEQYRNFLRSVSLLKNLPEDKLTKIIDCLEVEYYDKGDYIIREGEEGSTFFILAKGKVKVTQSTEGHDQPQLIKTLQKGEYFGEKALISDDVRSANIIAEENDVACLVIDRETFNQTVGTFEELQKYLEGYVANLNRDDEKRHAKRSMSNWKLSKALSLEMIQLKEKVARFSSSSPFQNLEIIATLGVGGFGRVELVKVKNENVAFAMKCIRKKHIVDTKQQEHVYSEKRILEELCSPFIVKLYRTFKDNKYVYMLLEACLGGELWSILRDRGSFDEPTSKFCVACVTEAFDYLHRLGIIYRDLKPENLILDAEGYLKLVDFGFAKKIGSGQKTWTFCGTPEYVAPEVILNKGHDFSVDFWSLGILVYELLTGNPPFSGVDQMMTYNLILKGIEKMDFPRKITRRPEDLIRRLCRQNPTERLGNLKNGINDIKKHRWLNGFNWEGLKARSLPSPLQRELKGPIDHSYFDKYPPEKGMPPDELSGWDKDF
- method_summary: KINOMEscan competition binding
- conditions_used: compound 10.0 µM
quantity_kind: kinase still bound, per cent of control (%)
Numbers only, in %.

Consider the worked cases shown below.
- COc1cc2ncn(-c3cc(OCc4ccccc4C(F)(F)F)c(C(N)=O)s3)c2cc1OC: 86
- CS(=O)(=O)N1CCN(Cc2cc3nc(-c4cccc5[nH]ncc45)nc(N4CCOCC4)c3s2)CC1: 100

Now examine the next entry.
# get_value(readout='kinase still bound, per cent of control', item= N#CCNC(=O)c1ccc(-c2ccnc(Nc3ccc(N4CCOCC4)cc3)n2)cc1 )
100

---

- target_system: BMPR1A (human) (UniProt P36894)
- Sequence (P36894 whole entry, looked up): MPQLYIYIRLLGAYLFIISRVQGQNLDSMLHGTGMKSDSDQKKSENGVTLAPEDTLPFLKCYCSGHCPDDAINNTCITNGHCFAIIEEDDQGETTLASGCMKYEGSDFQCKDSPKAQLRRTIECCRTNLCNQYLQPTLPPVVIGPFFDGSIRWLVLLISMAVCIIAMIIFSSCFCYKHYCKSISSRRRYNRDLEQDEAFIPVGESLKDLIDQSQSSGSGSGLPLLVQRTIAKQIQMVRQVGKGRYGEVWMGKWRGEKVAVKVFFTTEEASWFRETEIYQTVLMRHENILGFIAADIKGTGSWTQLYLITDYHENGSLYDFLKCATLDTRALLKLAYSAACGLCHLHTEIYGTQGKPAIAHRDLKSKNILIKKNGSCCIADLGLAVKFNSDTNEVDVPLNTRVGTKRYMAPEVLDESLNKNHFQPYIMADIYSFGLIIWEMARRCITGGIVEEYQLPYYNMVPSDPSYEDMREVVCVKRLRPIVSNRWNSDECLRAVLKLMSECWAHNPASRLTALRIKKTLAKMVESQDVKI
- method_summary: KINOMEscan competition binding
- conditions_used: compound 10.0 µM
quantity_kind: kinase still bound, per cent of control (%)
Give bare numbers, in %.

- C=CC(=O)Nc1cc(-n2c(=O)ccc3cnc4ccc(-c5cn[nH]c5)cc4c32)ccc1C: 12
- C[C@@H](Oc1cc(-c2cnn(C3CCNCC3)c2)cnc1N)c1c(Cl)ccc(F)c1Cl: 0.15
- N#CCNC(=O)c1ccc(-c2ccnc(Nc3ccc(N4CCOCC4)cc3)n2)cc1: 3.6
- COCC(=O)NC/C=C/c1ccc2ncnc(Nc3ccc(Oc4ccc(C)nc4)c(C)c3)c2c1: 17

Look up kinase still bound, per cent of control for the entries below, preserving their order.
1. COc1cc(C(=O)N2CCC(N3CCN(C)CC3)CC2)ccc1Nc1ncc2c(n1)N(C)c1ccccc1C(=O)N2C
2. C=CC(=O)Nc1ccc(CN(C(=O)Nc2c(Cl)c(OC)cc(OC)c2Cl)c2cc(Nc3ccc(N4CCN(C)CC4)cc3)ncn2)cc1

1. 76
2. 100

Look up kinase still bound, per cent of control for the entries below, preserving their order.
1. CS(=O)(=O)N1CCN(Cc2cc3nc(-c4cccc5[nH]ncc45)nc(N4CCOCC4)c3s2)CC1
2. O=C(Nc1cccc(Nc2ncc(Br)c(NCCc3cnc[nH]3)n2)c1)N1CCCC1

1: 100; 2: 0.8

# get_value(readout='kinase still bound, per cent of control', item= COc1cc2ncnc(-n3nc(-c4ccccn4)nc3N)c2cc1OC )
0.3
